tgt: Recombinant human Cbl-b (aa 36-427) (Homo sapiens (Human), UniProt Q13191)
Sequence (Q13191 36-427): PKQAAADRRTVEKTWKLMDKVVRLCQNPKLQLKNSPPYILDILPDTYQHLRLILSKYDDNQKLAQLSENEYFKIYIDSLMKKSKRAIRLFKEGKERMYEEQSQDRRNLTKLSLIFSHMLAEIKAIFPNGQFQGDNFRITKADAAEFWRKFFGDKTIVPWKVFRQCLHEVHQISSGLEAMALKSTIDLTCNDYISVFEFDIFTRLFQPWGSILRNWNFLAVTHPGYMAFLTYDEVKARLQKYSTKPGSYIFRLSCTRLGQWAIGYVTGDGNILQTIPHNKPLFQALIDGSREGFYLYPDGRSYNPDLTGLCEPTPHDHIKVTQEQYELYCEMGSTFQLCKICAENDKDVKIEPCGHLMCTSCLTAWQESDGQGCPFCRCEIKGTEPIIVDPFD
experiment_description: Cbl-b Biochemical Assay (TR-FRET)
cond: read-out: TR-FRET hCbl-b IC50
readout: IC50

**Query** API: value(readout=IC50, system=Recombinant human Cbl-b (aa 36-427) (Homo sapiens (Human), UniProt Q13191)) for record CCNc1cc(-c2c(-c3nncn3C)cnn2C)cc(NC(=O)c2cc(CO)cc(C3CC3)n2)n1
**Result** ≤ 0.2 µM

**Query** API: value(readout=IC50, system=Recombinant human Cbl-b (aa 36-427) (Homo sapiens (Human), UniProt Q13191)) for record CCNc1cc(-c2c(-c3nncn3C)cnn2C)cc(NC(=O)c2cc(=O)n(CCN3CCCC3)c(C3CC3)n2)n1
**Result** 10 to 50 µM

**Query** API: value(readout=IC50, system=Recombinant human Cbl-b (aa 36-427) (Homo sapiens (Human), UniProt Q13191)) for record CCOc1cc(-c2ccc(C#N)cc2-c2nncn2C)cc(N2Cc3ccc(CO)cc3C2=O)n1
**Result** ≤ 0.2 µM

**Query** API: value(readout=IC50, system=Recombinant human Cbl-b (aa 36-427) (Homo sapiens (Human), UniProt Q13191)) for record Cn1cnnc1-c1ccccc1-c1cccc(N2Cc3c(cc(CN[C@H]4CCC[C@H]4O)cc3C(F)(F)F)C2=O)c1
**Result** ≤ 0.2 µM

**Query** API: value(readout=IC50, system=Recombinant human Cbl-b (aa 36-427) (Homo sapiens (Human), UniProt Q13191)) for record Cn1cnnc1-c1cc(C#N)ccc1-c1cc(C2CC2)nc(N2Cc3ccc(CO)cc3C2=O)c1
**Result** ≤ 0.2 µM

**Query** API: value(readout=IC50, system=Recombinant human Cbl-b (aa 36-427) (Homo sapiens (Human), UniProt Q13191)) for record Cn1cnnc1-c1cc(F)ccc1-c1cccc(N2Cc3ccc(CNCC4(O)CCC4)cc3C2=O)c1
**Result** ≤ 0.2 µM

**Query** API: value(readout=IC50, system=Recombinant human Cbl-b (aa 36-427) (Homo sapiens (Human), UniProt Q13191)) for record CCNc1cc(-c2c(-c3nncn3C)cnn2C)cc(N2Cc3c(cc(CNCCOCCOCCOCCNC(=O)CCc4ccc5n4[B-](F)(F)[N+]4=C(c6ccc[nH]6)C=CC4=C5)cc3C(F)(F)F)C2=O)n1
**Result** ≤ 0.2 µM

**Query** API: value(readout=IC50, system=Recombinant human Cbl-b (aa 36-427) (Homo sapiens (Human), UniProt Q13191)) for record Cn1cnnc1-c1ccccc1-c1cccc(NC(=O)c2cc(=O)n(CCN3CCCC3)c(C3CC3)n2)c1
**Result** 1 to 10 µM

**Query** API: value(readout=IC50, system=Recombinant human Cbl-b (aa 36-427) (Homo sapiens (Human), UniProt Q13191)) for record CN(Cc1ccc2c(c1)C(=O)N(c1cc(-c3ccc(C#N)cc3-c3nncn3C)cc(C3CC3)n1)C2)CC1(O)CCC1
**Result** ≤ 0.2 µM

**Query** API: value(readout=IC50, system=Recombinant human Cbl-b (aa 36-427) (Homo sapiens (Human), UniProt Q13191)) for record Cn1cnnc1-c1cc(C#N)ccc1-c1cc(C2CC2)nc(N2Cc3ccc(C(C)(C)NCC4CCC4)cc3C2=O)c1
**Result** ≤ 0.2 µM

**Query** API: value(readout=IC50, system=Recombinant human Cbl-b (aa 36-427) (Homo sapiens (Human), UniProt Q13191)) for record Cn1cnnc1-c1ccccc1-c1cccc(N2Cc3c(cc(CN[C@@H]4CCC[C@H]4O)cc3C(F)(F)F)C2=O)c1
**Result** ≤ 0.2 µM

**Query** API: value(readout=IC50, system=Recombinant human Cbl-b (aa 36-427) (Homo sapiens (Human), UniProt Q13191)) for record Cn1cnnc1-c1cc(C#N)ccc1-c1cc(C2CC2)nc(N2Cc3ccc(CNCC4(O)CCC4)cc3C2=O)c1
**Result** ≤ 0.2 µM

**Query** API: value(readout=IC50, system=Recombinant human Cbl-b (aa 36-427) (Homo sapiens (Human), UniProt Q13191)) for record Cn1cnnc1-c1cc(C#N)ccc1-c1cc(C2CC2)nc(N2Cc3c(F)cc(CN4C[C@]5(C)C[C@H]4CO5)cc3C2=O)c1
**Result** ≤ 0.2 µM

**Query** API: value(readout=IC50, system=Recombinant human Cbl-b (aa 36-427) (Homo sapiens (Human), UniProt Q13191)) for record CCNc1cc(-c2c(-c3nncn3C)cnn2C)cc(N2Cc3c(cc(OC4CN(C)C4)cc3C(F)(F)F)C2=O)n1
**Result** ≤ 0.2 µM

**Query** API: value(readout=IC50, system=Recombinant human Cbl-b (aa 36-427) (Homo sapiens (Human), UniProt Q13191)) for record Cc1ccc2c(c1)C(=O)N(c1cc(-c3ccc(F)cc3-c3nncn3C)cc(C(C)C)n1)C2
**Result** 1 to 10 µM

**Query** API: value(readout=IC50, system=Recombinant human Cbl-b (aa 36-427) (Homo sapiens (Human), UniProt Q13191)) for record CNCc1cc2c(c(C(F)(F)F)c1)CN(c1cc(-c3ccc(C#N)cc3-c3nncn3C)cc(C3CC3)n1)C2=O
**Result** ≤ 0.2 µM

**Query** API: value(readout=IC50, system=Recombinant human Cbl-b (aa 36-427) (Homo sapiens (Human), UniProt Q13191)) for record Cn1cnnc1-c1ccccc1-c1cccc(N2Cc3c(cc(CNCC(C)(C)O)cc3C(F)(F)F)C2=O)c1
**Result** ≤ 0.2 µM

**Query** API: value(readout=IC50, system=Recombinant human Cbl-b (aa 36-427) (Homo sapiens (Human), UniProt Q13191)) for record Cn1cnnc1-c1cc(C#N)ccc1-c1cc(C2CC2)nc(N2Cc3ccc(CNCC45CC(C4)C5)cc3C2=O)c1
**Result** ≤ 0.2 µM

**Query** API: value(readout=IC50, system=Recombinant human Cbl-b (aa 36-427) (Homo sapiens (Human), UniProt Q13191)) for record Cn1cnnc1-c1cc(C#N)ccc1-c1cc(C2CC2)nc(N2Cc3c(F)cc(CN4CC[C@@H]5COC[C@H]54)cc3C2=O)c1
**Result** ≤ 0.2 µM

**Query** API: value(readout=IC50, system=Recombinant human Cbl-b (aa 36-427) (Homo sapiens (Human), UniProt Q13191)) for record Cn1cnnc1-c1ccccc1-c1cc(N2Cc3c(cccc3C(F)(F)F)C2=O)cc(C(F)(F)F)c1
**Result** 1 to 10 µM

**Query** API: value(readout=IC50, system=Recombinant human Cbl-b (aa 36-427) (Homo sapiens (Human), UniProt Q13191)) for record CN(Cc1ccc2c(c1)C(=O)N(c1cc(-c3ccc(Cl)cc3-c3nncn3C)cc(C3CC3)n1)C2)CC1(O)CCC1
**Result** ≤ 0.2 µM

**Query** API: value(readout=IC50, system=Recombinant human Cbl-b (aa 36-427) (Homo sapiens (Human), UniProt Q13191)) for record CCNc1cc(-c2ccc(F)cc2-c2nncn2C)cc(N2Cc3c(cccc3C(F)(F)F)C2=O)n1
**Result** ≤ 0.2 µM

**Query** API: value(readout=IC50, system=Recombinant human Cbl-b (aa 36-427) (Homo sapiens (Human), UniProt Q13191)) for record Cn1cnnc1-c1cc(C#N)ccc1-c1cc(C2CC2)nc(N2Cc3c(cc(CNCC4(O)CCC4)c(F)c3F)C2=O)c1
**Result** ≤ 0.2 µM

**Query** API: value(readout=IC50, system=Recombinant human Cbl-b (aa 36-427) (Homo sapiens (Human), UniProt Q13191)) for record CN(Cc1ccc2c(c1)C(=O)N(c1cc(-c3ccc(C#N)cc3-c3nncn3C)cc(C3CC3)n1)C2)CC1CCC1
**Result** ≤ 0.2 µM

**Query** API: value(readout=IC50, system=Recombinant human Cbl-b (aa 36-427) (Homo sapiens (Human), UniProt Q13191)) for record Cn1cnnc1-c1cnn(C)c1-c1cc(NS(C)(=O)=O)nc(N2Cc3c(cccc3C(F)(F)F)C2=O)c1
**Result** 1 to 10 µM

**Query** API: value(readout=IC50, system=Recombinant human Cbl-b (aa 36-427) (Homo sapiens (Human), UniProt Q13191)) for record CCNc1cc(-c2c(-c3nncn3C)cnn2C)cc(NC(=O)c2cc(C)cc(C3CC3)n2)n1
**Result** 0.2 to 1 µM

**Query** API: value(readout=IC50, system=Recombinant human Cbl-b (aa 36-427) (Homo sapiens (Human), UniProt Q13191)) for record Cn1cnnc1-c1ccc(Br)cc1-c1cccc(N2Cc3c(cccc3C(F)(F)F)C2=O)c1
**Result** 1 to 10 µM

**Query** API: value(readout=IC50, system=Recombinant human Cbl-b (aa 36-427) (Homo sapiens (Human), UniProt Q13191)) for record COCCNCc1cc2c(cc1F)CN(c1cc(-c3ccc(C#N)cc3-c3nncn3C)cc(C3CC3)n1)C2=O
**Result** ≤ 0.2 µM

**Query** API: value(readout=IC50, system=Recombinant human Cbl-b (aa 36-427) (Homo sapiens (Human), UniProt Q13191)) for record COCCNCc1cc(F)c2c(c1)C(=O)N(c1cc(-c3ccc(C#N)cc3-c3nncn3C)cc(C(F)(F)F)n1)C2
**Result** ≤ 0.2 µM
